# assayNotes: Leishmania major promastigote growth inhibition, primary screen (AID 1063);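 further: promastigotes grown with compound for 44 hours at 28 °C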
# assayContext: Leishmania major promastigotes, resazurin fluorescence viability; at 10 µM; stronger effect = higher value
In all, about 200,000 compounds went through this assay and about 18,000 (9%) were called active. Only a selection was taken, and actives are over-represented in it overall.
attributeMeasured: inhibition (%)
Please state the figure in %; there is no need to write the unit.

Value of measured inhibition for the entry `CCOC(=O)N1CCN(C(=O)c2ccccc2N(Cc2ccccc2)S(=O)(=O)c2ccc(OC)cc2)CC1` : 43.4

Value of measured inhibition for the entry `COc1cc(C=O)c(Br)cc1OCC(=O)NCc1ccccc1` : 4.2

Value of measured inhibition for the entry `Cc1ccc(-c2noc(CCC(=O)Nc3ccccc3N3CCN(C)CC3)n2)cc1` : 57.9

Value of measured inhibition for the entry CC1Cc2ccccc2N1C1=CC(=O)CC(C)(C)C1 (stereo unspecified) : 7.71

Value of measured inhibition for the entry `Cc1ccc(-c2noc(CCC(N)=O)n2)cc1` : -4.98

Value of measured inhibition for the entry `O=C(CN1C(=O)c2cccc3cccc(c23)C1=O)N1CCCCC1` : 89.8

Value of measured inhibition for the entry `COc1ccc(S(=O)(=O)N2CCOCC2)cc1NC(=O)CSc1ncnc2ccccc12` : 23

Value of measured inhibition for the entry `Clc1ccc(-c2csc(-c3ccncc3)n2)cc1` : 5.86

Value of measured inhibition for the entry `CCOc1ccccc1Nc1ccc(C(=O)O)cc1[N+](=O)[O-]` : -1.36

Value of measured inhibition for the entry `O=C(O)/C=C/c1ccc(OCCCF)cc1` : -5.86

Value of measured inhibition for the entry `CCOC(=O)c1[nH]cnc1C(=O)Nc1ccccc1C` : 4.69

* * *

# assayNotes: Leishmania major promastigote growth inhibition, primary screen (AID 1063);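 further: promastigotes grown with compound for 44 hours at 28 °C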
# assayContext: Leishmania major promastigotes, resazurin fluorescence viability; at 10 µM
Among all 200,000 compounds or so, about 18,000 (9%) were called active. Cut-off read from the data, not from the text of the source: active = inhibition above about 50%; inactive = the rest. What follows is part of a selection rich in actives, with near analogues and random picks from the rest.
Pick one and only one: true = active, false = inactive

**Q:** Can you look up the reported call for `Cc1cccc2c1N(CCOc1ccccc1)C(=O)C2=O` for me?
**A:** false

**Q:** Can you look up the reported call for `COc1ccc(Br)cc1/C=N/Nc1ccc(Cl)c(C(=O)O)c1` for me?
**A:** false

**Q:** Can you look up the reported call for Cc1ccc(CN2CCN(Cc3cn(C)nc3-c3ccccc3)CC2CCO)o1 (stereo unspecified) for me?
**A:** false

**Q:** Can you look up the reported call for `Cc1ccc(Nc2nc(CSc3nnc(-c4ccncc4)n3-c3ccccc3C)cs2)cc1` for me?
**A:** false

**Q:** Can you look up the reported call for `COc1ccc(C(=O)N/N=c2\oc3ccccc3cc2C(N)=O)cc1` for me?
**A:** false

**Q:** Can you look up the reported call for `CCc1ccc(NC(=O)C(=O)N/N=C(\C)CC(=O)NCCOC)cc1` for me?
**A:** false

**Q:** Can you look up the reported call for `CCn1c(SCC(=O)NCc2ccco2)nnc1-c1ccc(N)cc1` for me?
**A:** false

**Q:** Can you look up the reported call for `COc1cccc(-n2c(=O)c3c(C)c(C(=O)N(C)C)sc3n(CC(=O)NCCc3ccc(OC)c(OC)c3)c2=O)c1` for me?
**A:** false

**Q:** Can you look up the reported call for `CCOC(=O)c1sc(/N=C/C2=C(O)CC(C)(C)CC2=O)c(C(=O)OCC)c1C` for me?
**A:** false

**Q:** Can you look up the reported call for `COc1cc(NC(=O)COC(=O)c2cnc(C)cn2)c(C)cc1[N+](=O)[O-]` for me?
**A:** false

**Q:** Can you look up the reported call for CCOc1cc(C2C(C(=O)OC(C)C)=C(C)NC3=C2C(=O)CCC3)cc([N+](=O)[O-])c1O (stereo unspecified) for me?
**A:** false

**Q:** Can you look up the reported call for `O=c1[nH]n2c(-c3ccccc3)nc(O)c2c2ccccc12` for me?
**A:** false

**Q:** Can you look up the reported call for `C/C(Cn1nnc2ccccc21)=N\OC(=O)c1cc(F)c(F)cc1Cl` for me?
**A:** false

**Q:** Can you look up the reported call for `O=C(Nc1ccc(N2CCN(C(=O)c3cccs3)CC2)cc1)c1cccnc1Cl` for me?
**A:** false

**Q:** Can you look up the reported call for `COCCN(Cc1nc(-c2ccc(C(F)(F)F)cc2)no1)C(C)C` for me?
**A:** false

**Q:** Can you look up the reported call for `Oc1ccc(-c2nncn2-c2ccccc2)cc1` for me?
**A:** false

**Q:** Can you look up the reported call for `Cc1ccccc1-n1c(SCC(=O)NCc2cccs2)nnc1-c1ccncc1` for me?
**A:** true

**Q:** Can you look up the reported call for `COc1cccc2cc(S(=O)(=O)c3ccc(C)cc3)/c(=N/NS(=O)(=O)c3ccc(C)cc3)oc12` for me?
**A:** false

**Q:** Can you look up the reported call for Cc1ccc(C(=O)N/C(=C/c2cccs2)C(=O)NCC2CCCO2)cc1 (stereo unspecified) for me?
**A:** false

**Q:** Can you look up the reported call for `Cc1ccc(-n2c(SCC(=O)NCc3ccc4c(c3)OCO4)nnc2-c2cccnc2)c(C)c1` for me?
**A:** false

**Q:** Can you look up the reported call for `O=C(C1CCN(S(=O)(=O)c2ccc(Br)s2)CC1)N1CCN(C2CCCCC2)CC1` for me?
**A:** true

* * *

# assayNotes: Leishmania major promastigote growth inhibition, primary screen (AID 1063);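 further: promastigotes grown with compound for 44 hours at 28 °C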
# assayContext: Leishmania major promastigotes, resazurin fluorescence viability; at 10 µM
In all, about 200,000 compounds went through this assay and about 18,000 (9%) were called active. Cut-off read from the data, not from the text of the source: active = inhibition above about 50%; inactive = the rest. The sample as a whole holds a higher share of actives than the screen did.
Pick one and only one: 1 (active), -1 (inactive)

**Q:** Can you look up the reported call for `COc1ccc(CNC(=O)CN(Cc2ccc(Cl)cc2)S(C)(=O)=O)cc1` for me?
**A:** 1

**Q:** Can you look up the reported call for `CN1CCN(C(=O)/C(=C\c2ccc3c(c2)OCO3)NC(=O)c2cccs2)CC1` for me?
**A:** -1

**Q:** Can you look up the reported call for CCc1ccc(CN2C(=O)c3ccccc3C2C(=O)NCC2CCCO2)cc1 (stereo not given) for me?
**A:** -1

**Q:** Can you look up the reported call for `Cc1nnc(SCC(=O)NCCOc2ccc(Cl)cc2)n1-c1ccccc1` for me?
**A:** -1

**Q:** Can you look up the reported call for `COc1cccc(CNC(=O)Cc2csc(Nc3nc(=S)[nH]c4ccccc34)n2)c1` for me?
**A:** -1

**Q:** Can you look up the reported call for `CCN(CC)C(=O)Cn1cc(S(=O)(=O)CC(=O)NCc2ccc3c(c2)OCO3)c2ccccc21` for me?
**A:** -1

**Q:** Can you look up the reported call for `Cc1cc(C)n2nc(C(=O)N(C)C(c3ccccc3)c3ccccc3)nc2n1` for me?
**A:** -1

**Q:** Can you look up the reported call for `CC1(C)CC(=O)c2c(n(S(=O)(=O)c3ccccc3)c3ccc(NS(=O)(=O)c4ccccc4)cc23)C1` for me?
**A:** 1

**Q:** Can you look up the reported call for `C/C(=N/OC(=O)c1cccc(C(F)(F)F)c1)c1cnccn1` for me?
**A:** -1

**Q:** Can you look up the reported call for `CC(C)C(=O)Nc1ccc2oc(=O)ccc2c1` for me?
**A:** -1

* * *

# assayNotes: Leishmania major promastigote growth inhibition, primary screen (AID 1063);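 further: promastigotes grown with compound for 44 hours at 28 °C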
# assayContext: Leishmania major promastigotes, resazurin fluorescence viability; at 10 µM
The whole screen tested about 200,000 compounds, of which about 18,000 (9%) were called active. No stated cut-off is given here; in the data, active means inhibition above about 50%; inactive means the rest. The sample as a whole holds a higher share of actives than the screen did.
Pick one and only one: true (1) for active, false (0) for inactive

**Q:** Can you look up the reported call for `O=C(Oc1cccc(NC2=NS(=O)(=O)c3ccccc32)c1)c1ccncc1` for me?
**A:** false (0)

**Q:** Can you look up the reported call for `COc1cccc(NC(=O)CS(=O)(=O)c2cn(CC(=O)N3CCOCC3)c3ccccc23)c1` for me?
**A:** false (0)

**Q:** Can you look up the reported call for CC1CCCN(S(=O)(=O)c2ccc(N(C(=O)c3cnccn3)C(C(=O)NC3CCCCC3)c3cccs3)cc2)C1 (stereo not given) for me?
**A:** true (1)

**Q:** Can you look up the reported call for `CCOC(=O)c1cc(C#N)c(N2CCCCC2)nc1-c1ccccc1` for me?
**A:** true (1)

**Q:** Can you look up the reported call for `CC(=O)c1cc(C#N)c(N2CCCCC2)nc1C` for me?
**A:** false (0)

**Q:** Can you look up the reported call for `Cc1ccnc(NC(=O)CCC(=O)N(CC(=O)NCCc2ccccc2)Cc2cccs2)c1` for me?
**A:** false (0)

**Q:** Can you look up the reported call for `CCOc1c(CNCc2ccc(C(=O)O)cc2)cccc1OC` for me?
**A:** false (0)

**Q:** Can you look up the reported call for CCN(C(=O)COC(=O)c1cc(S(=O)(=O)N2CCc3ccccc32)ccc1OC)C1CCS(=O)(=O)C1 (stereo not given) for me?
**A:** false (0)

**Q:** Can you look up the reported call for `Cc1cccc2cc(C#N)c(N3CCCC3)nc12` for me?
**A:** false (0)

**Q:** Can you look up the reported call for `N=C1C(c2nc3ccccc3[nH]2)=C(O)CN1NC(=O)c1c[nH]c2ccccc12` for me?
**A:** false (0)
